Reference source for all entries: PubChem BioAssay (NCI)

- System: T-47D breast
- protocol: NCI-60 one-dose screen, 48 h (100 = growth as untreated, 0 = no growth, -100 = all killed)
- conditionParameters: 10 µM unless noted
About 83,000 compounds went through this panel and 20% of them were active in at least one assay; those are over-represented in the sample as a whole. Activity calls are given as the source filed them. The calls were made as follows: active = growth percent below 10; inactive = the rest.
measuredQuantity: growth

Would you please look over these solved cases?
>>> valuereported("Cc1ccc(NC(=O)N[C@@H](Cc2cc(F)cc(F)c2)C(=O)NC2C(=O)N3C[C@H](O)C[C@H]3C(=O)N3CCCC[C@H]3C(=O)N[C@@H](CO)C(=O)N3C[C@H](C)C[C@H]3C(=O)O[C@H]2C)c(F)c1 (some centres undefined)")
"32.5% (inactive)"
>>> valuereported("O=C1CC(=O)N2CSCN(C(c3ccccc3)c3nc4ncncc4[nH]3)C2=N1 (centres undefined)")
"98.8% (inactive)"
>>> valuereported("COc1c(N2CC3CCCNC3C2)c(F)cc2c(=O)c(C(=O)N/N=C/c3ccc(N(C)C)cc3)cn(C3CC3)c12 (centres undefined)")
"95.5% (inactive)"

Please look at the following compound next.
# query: growth of entry `O=C(/C=C/c1ccc(F)cc1)c1ccc(O)cc1`
93.9% (inactive)
